Value source: PubChem BioAssay AID2060906

System: 485176-168-R4-J1-PDC complex spheroid growth
Experiment: Anticancer human tumor 485176-168-R4-J1-PDC patient-derived pancreatic adenocarcinoma cell line growth inhibition [RAS]
Details: second compound 0.000949 µM; first compound 0.0316 µM; active compounds read low
Text: RAS pathway inhibitors in Combinations in Complex Spheroids A high-throughput screen of multi-cell type tumor spheroids was designed to identify active combinations of RAS pathway inhibitors and targeted small molecules. Complex spheroids include a stromal component modeled by human endothelial cells (HUVEC) and fibroblasts modeled by human mesenchymal stem cells (MSCs). […] Compounds. […] If the clinical Cmax for an agent had not been determined, the highest concentration tested was 10 microM. […]
Measure: viability, T/C (%)
Supply the numeric figure in %, leaving out any unit text.

NC1c2ccccc2OC12CCN(c1cnc3c(N4CCCc5ncccc54)n[nH]c3n1)CC2 (stereo not given) + CCn1c(-c2cc(N3CCN(C)CC3)cnc2C(C)OC)c2c3cc(ccc31)-c1csc(n1)CC(NC(=O)C1CC1C)C(=O)N1CCCC(N1)C(=O)OCC(C)(C)C2    86.4
CC1(O)CCCC1n1c(=O)c(C(F)F)cc2cnc(NC3CCN(S(C)(=O)=O)CC3)nc21 (stereo not given) + CCn1c(-c2cccnc2C(C)OC)c2c3cc(ccc31)N1CCOC(CC(NC(=O)C(C(C)C)N(C)C(=O)C3(F)CCN(C(=O)C#CC(C)(C)N(C)C)CC3)C(=O)N3CCCC(N3)C(=O)OCC(C)(C)C2)C1    114
CCN1CCN(Cc2ccc(Nc3ncc(F)c(-c4cc(F)c5nc(C)n(C(C)C)c5c4)n3)nc2)CC1 + CCn1c(-c2cccnc2C(C)OC)c2c3cc(ccc31)N1CCOC(CC(NC(=O)C(C(C)C)N(C)C(=O)C3(F)CCN(C(=O)C#CC(C)(C)N(C)C)CC3)C(=O)N3CCCC(N3)C(=O)OCC(C)(C)C2)C1    100
Nc1ccn(C2OC(CO)C(O)C2(F)F)c(=O)n1 (stereo not given) + CCn1c(-c2cccnc2C(C)OC)c2c3cc(ccc31)N1CCOC(CC(NC(=O)C(C(C)C)N(C)C(=O)C3(F)CCN(C(=O)C#CC(C)(C)N(C)C)CC3)C(=O)N3CCCC(N3)C(=O)OCC(C)(C)C2)C1    15
CC(C)n1nc(-c2ccc3oc(N)nc3c2)c2c(N)ncnc21 + CCn1c(-c2cccnc2C(C)OC)c2c3cc(ccc31)N1CCOC(CC(NC(=O)C(C(C)C)N(C)C(=O)C3(F)CCN(C(=O)C#CC(C)(C)N(C)C)CC3)C(=O)N3CCCC(N3)C(=O)OCC(C)(C)C2)C1    38.5

[ask] Dear colleague, I am looking for the recorded viability, T/C of the following compound: C[C@@H](NC(=O)c1ncnc(N)c1Cl)c1ncc(C(=O)Nc2cc(C(F)(F)F)c(Cl)cn2)s1 + CCn1c(-c2cccnc2C(C)OC)c2c3cc(ccc31)N1CCOC(CC(NC(=O)C(C(C)C)N(C)C(=O)C3(F)CCN(C(=O)C#CC(C)(C)N(C)C)CC3)C(=O)N3CCCC(N3)C(=O)OCC(C)(C)C2)C1
[reply] 101

[ask] And the next one, CC(=O)OC12COC1CC(O)C1(C)C(=O)C(O)C3=C(C)C(OC(=O)C(O)C(NC(=O)OC(C)(C)C)c4ccccc4)CC(O)(C(OC(=O)c4ccccc4)C21)C3(C)C (stereo not given) + CCn1c(-c2cc(N3CCN(C)CC3)cnc2C(C)OC)c2c3cc(ccc31)-c1csc(n1)CC(NC(=O)C1CC1C)C(=O)N1CCCC(N1)C(=O)OCC(C)(C)C2 ?
[reply] 16.7

[ask] What about this compound? C[C@@H](NC(=O)c1ncnc(N)c1Cl)c1ncc(C(=O)Nc2cc(C(F)(F)F)c(Cl)cn2)s1 + CCn1c(-c2cc(N3CCN(C)CC3)cnc2C(C)OC)c2c3cc(ccc31)-c1csc(n1)CC(NC(=O)C1CC1C)C(=O)N1CCCC(N1)C(=O)OCC(C)(C)C2
[reply] 102

[ask] Then what about the compound Cc1nc(N2CCC3(CC2)COC(C)C3N)c(CO)nc1Sc1ccnc(N)c1Cl (stereo not given) + CCn1c(-c2cc(N3CCN(C)CC3)cnc2C(C)OC)c2c3cc(ccc31)-c1csc(n1)CC(NC(=O)C1CC1C)C(=O)N1CCCC(N1)C(=O)OCC(C)(C)C2 ?
[reply] 90.6

[ask] And what about the compound CC(=O)OC12COC1CC(O)C1(C)C(=O)C(O)C3=C(C)C(OC(=O)C(O)C(NC(=O)OC(C)(C)C)c4ccccc4)CC(O)(C(OC(=O)c4ccccc4)C21)C3(C)C (stereo not given) + CCn1c(-c2cccnc2C(C)OC)c2c3cc(ccc31)N1CCOC(CC(NC(=O)C(C(C)C)N(C)C(=O)C3(F)CCN(C(=O)C#CC(C)(C)N(C)C)CC3)C(=O)N3CCCC(N3)C(=O)OCC(C)(C)C2)C1 ?
[reply] 13.4

[ask] Further, for CCC(CC)c1cc(NC2CCC(N)C2)n2nccc2n1 (stereo not given) + CCn1c(-c2cc(N3CCN(C)CC3)cnc2C(C)OC)c2c3cc(ccc31)-c1csc(n1)CC(NC(=O)C1CC1C)C(=O)N1CCCC(N1)C(=O)OCC(C)(C)C2 ?
[reply] 92.1

* * *

Tested on: 485176-168-R4-J1-PDC complex spheroid growth
Assay: Anticancer human tumor 485176-168-R4-J1-PDC cell line growth inhibition [RAS];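 also: spheroids exposed to compounds for seven days before readout; luminescence viability expressed relative to DMSO vehicle wells set as 100%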
Conditions: second compound 0.0949 µM; first compound 0.0316 µM; active compounds read low
Excerpt: RAS pathway inhibitors in Combinations in Complex Spheroids A high-throughput screen of multi-cell type tumor spheroids was designed to identify active combinations of RAS pathway inhibitors and targeted small molecules. Complex spheroids include a stromal component modeled by human endothelial cells (HUVEC) and fibroblasts modeled by human mesenchymal stem cells (MSCs). […] Compounds. […] If the clinical Cmax for an agent had not been determined, the highest concentration tested was 10 microM. […]
Entries and their measured viability, T/C follow.
The reply should contain only the number, in %.

CC(C)n1nc(-c2ccc3oc(N)nc3c2)c2c(N)ncnc21 + CCn1c(-c2cc(N3CCN(C)CC3)cnc2C(C)OC)c2c3cc(ccc31)-c1csc(n1)CC(NC(=O)C1CC1C)C(=O)N1CCCC(N1)C(=O)OCC(C)(C)C2    30.9
CC(Nc1ccc2c(c1)OCCn1cc(N3C(=O)OCC3C(F)F)nc1-2)C(N)=O (centres undefined) + CCn1c(-c2cccnc2C(C)OC)c2c3cc(ccc31)N1CCOC(CC(NC(=O)C(C(C)C)N(C)C(=O)C3(F)CCN(C(=O)C#CC(C)(C)N(C)C)CC3)C(=O)N3CCCC(N3)C(=O)OCC(C)(C)C2)C1    90.4
O=C(c1ccc(F)c(F)c1Nc1ccc(I)cc1F)N1CC(O)([C@@H]2CCCCN2)C1 + CCn1c(-c2cc(N3CCN(C)CC3)cnc2C(C)OC)c2c3cc(ccc31)-c1csc(n1)CC(NC(=O)C1CC1C)C(=O)N1CCCC(N1)C(=O)OCC(C)(C)C2    36.5

Turning now to a further compound:
[ask] Entry under review: C=CC(=O)N1CCN(c2nc(OCC3CCCN3C)nc3c(F)c(-c4nc(N)cc(C)c4C(F)(F)F)c(Cl)cc23)C(C)C1 (centres undefined) + CCn1c(-c2cc(N3CCN(C)CC3)cnc2C(C)OC)c2c3cc(ccc31)-c1csc(n1)CC(NC(=O)C1CC1C)C(=O)N1CCCC(N1)C(=O)OCC(C)(C)C2 . Reported viability, T/C?
[reply] 80.4

* * *

Measured viability, T/C, listed per entry.
test system: 485176-168-R4-J1-PDC complex spheroid growth; assay: Anticancer human tumor 485176-168-R4-J1-PDC cell line growth inhibition [RAS]; settings: second compound 1 µM; first compound 0.316 µM; active compounds read low;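 also: spheroids exposed to compounds for seven days before readout; luminescence viability expressed relative to DMSO vehicle wells set as 100%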

CC(=O)OC12COC1CC(O)C1(C)C(=O)C(O)C3=C(C)C(OC(=O)C(O)C(NC(=O)OC(C)(C)C)c4ccccc4)CC(O)(C(OC(=O)c4ccccc4)C21)C3(C)C (stereo unspecified) + C#Cc1c(F)ccc2cc(O)cc(-c3ncc4c(N5CC6CCC(C5)N6)nc(OCC56CCCN5CC(F)C6)nc4c3F)c12    12.8%
O=C(c1ccc(F)c(F)c1Nc1ccc(I)cc1F)N1CC(O)([C@@H]2CCCCN2)C1 + C=CC(=O)N1CCN(c2nc(OCC3CCCN3C)nc3c(F)c(-c4nc(N)cc(C)c4C(F)(F)F)c(Cl)cc23)C(C)C1    50.8%
Cc1nc(N2CCC3(CC2)COC(C)C3N)c(CO)nc1Sc1ccnc(N)c1Cl (stereo unspecified) + C#Cc1c(F)ccc2cc(O)cc(-c3ncc4c(N5CC6CCC(C5)N6)nc(OCC56CCCN5CC(F)C6)nc4c3F)c12    71.4%
CCC(CC)c1cc(NC2CCC(N)C2)n2nccc2n1 (stereo unspecified) + C#Cc1c(F)ccc2cc(O)cc(-c3ncc4c(N5CC6CCC(C5)N6)nc(OCC56CCCN5CC(F)C6)nc4c3F)c12    92%
CC(Nc1ccc2c(c1)OCCn1cc(N3C(=O)OCC3C(F)F)nc1-2)C(N)=O (stereo unspecified) + C=CC(=O)N1CCN(c2nc(OCC3CCCN3C)nc3c(F)c(-c4nc(N)cc(C)c4C(F)(F)F)c(Cl)cc23)C(C)C1    69.5%

Now turn to the next compound.
[ask] Given the compound CCN1CCN(Cc2ccc(Nc3ncc(F)c(-c4cc(F)c5nc(C)n(C(C)C)c5c4)n3)nc2)CC1 + C#Cc1c(F)ccc2cc(O)cc(-c3ncc4c(N5CC6CCC(C5)N6)nc(OCC56CCCN5CC(F)C6)nc4c3F)c12 , what is its reported viability, T/C?
[reply] 72%
